System: KM12 colon
Experiment: NCI tumour cell line growth inhibition, 48 h
observedProperty: TGI (µM)
Output spec: scalar in µM, unitless text.

Past entries and their recorded results:
C/C(=N\NC(=S)N1CCC1)c1ccccn1 | 46.7
O=C(/C=C/c1ccccc1)c1cc(CN2CCOCC2)c(O)c(CN2CCOCC2)c1 | 33.1
OCCNc1nc2ccccc2c2[nH]c3ccccc3c12 | 4.63

**Q:** Can you look up the measured TGI of CN(C)C1C(=O)C(C(N)=O)=C(O)C2(O)C(=O)C3=C(O)c4c(O)cccc4C(C)(O)C3CC12.[Cl][Sb]([Cl])[Cl] (stereo not given) for me?
**A:** 13.2

**Q:** Moving on to C/C(=N/NC(=S)Nc1ccc(C)cc1)c1ccccn1
**A:** 15.5

**Q:** Moving on to CC(C)(C)O/N=C/c1cc(NC(=S)c2ccccc2)ccc1Cl
**A:** 25.7

**Q:** Moving on to N#CN1CC[C@H](C(=O)Nc2ncc(-c3ccccc3)s2)C1
**A:** 2.78

**Q:** Moving on to C/C(CCN(C)C)=N/O
**A:** 25.5

**Q:** Moving on to C/C(=C/CCC(C)[C@@H]1CC[C@]2(C)C3=C(CC[C@@]12C)[C@@]1(C)CCC(=O)C(C)(C)[C@@H]1CC3)C(=O)O (stereo not given in full)
**A:** 2.3

**Q:** Moving on to COc1ccc(-c2cnc(-c3ccncc3-c3cccc(OC)c3)o2)cc1
**A:** 1.82

**Q:** Moving on to O=c1[nH]c2c(Nc3c4ccccc4nc4ccccc34)c([N+](=O)[O-])c(Nc3c4ccccc4nc4ccccc34)c([N+](=O)[O-])c2[nH]1
**A:** 12

**Q:** Moving on to CCCC(O)[C@@]1(CC)CC(C)C(O)(C2(C)C[C@H](C)[C@@H](C(CC)C(=O)C(C)[C@@H](O)[C@H](C)C3OC(O)(C(CC)C(=O)O)[C@@H](C)C(O)C3CC)O2)O1 (stereo not given in full)
**A:** 2.06

**Q:** Moving on to COC(=O)c1ccc(NC(N)=NCCC(C)(C)c2ccc(C(F)(F)F)cc2)nc1
**A:** 9.12

**Q:** Moving on to O=c1[nH]c(=S)[nH]c(O)c1/C=C1\C=Nc2ccccc21
**A:** 3.34

**Q:** Moving on to CCc1ccc(Oc2c(-c3ccc(OCc4ccc(Cl)cc4)cc3O)nn(C)c2C(F)(F)F)cc1
**A:** 1.61

**Q:** Moving on to C[C@]12CCc3nc(Nc4ccc(O)cc4)sc3C1=CC[C@@H]1[C@@H]2CC[C@]2(C)/C(=N/NC(N)=S)CC[C@@H]12
**A:** 2.74

**Q:** Moving on to Cc1ccc(-n2c3nc(=O)n(C)c(=O)c-3nc3ccccc32)c(C)c1
**A:** 26.5
